The origin of these recorded values is patent US4478833A.

Overview of reported animals died (out of animals tested) across a group of compounds:
Test system: mice
assay.explanation: Acute toxicity in mice after oral administration
Assay type: in vivo
condition.context: 250 mg/kg p.o., observation time 14 days

Solved cases below.
q: Any idea what its animals died (out of animals tested) is? The compound is `[O-][S+]1CCN(c2nc(N(CCO)CCO)nc3c(N4CCCCC4)ncnc23)CC1`
a: 0 out of 10

q: Please answer likewise for `[O-][S+]1CCN(c2nc(N(CCO)CCO)nc3c(OCCCc4ccccc4)ncnc23)CC1`
a: 0 out of 6

q: Please answer likewise for `[O-][S+]1CCN(c2nc(NCCO)nc3c(NCc4ccc(Cl)cc4)ncnc23)CC1`
a: 0 out of 10

q: Please answer likewise for `[O-][S+]1CCN(c2nc(NCCO)nc3c(SCc4ccccc4)ncnc23)CC1`
a: 0 out of 10

q: Please answer likewise for `CCCCN(CC)c1ncnc2c(N3CC[S+]([O-])CC3)nc(NCCO)nc12`
a: 0 out of 6

More entries:
q: Any idea what its animals died (out of animals tested) is? The compound is CSc1ccc(C(C)Sc2ncnc3c(N4CC[S+]([O-])CC4)nc(NCCO)nc23)cc1 (stereo not shown)
a: 0 out of 6

q: Please answer likewise for `[O-][S+]1CCN(c2nc(N(CCO)CCO)nc3c(SCc4ccccc4)ncnc23)CC1`
a: 0 out of 10
